// data source = patent US20030186281A1

- Test system: tet operator sequence
- assayComment: β-galactosidase activity of a tetracycline-regulated promoter in transformed E. coli with revTetR, in the presence and absence of anhydrotetracycline (atc)
- Assay type: cell-based, Escherichia coli
- reportedConditions: RevTetR isolate cultured in the presence of anhydrotetracycline (ATC)
Would you mind labelling by β-Galactosidase Activity, Cultured With ATC? At or over 4 is t, under is f.

{"molecule": "TetRrevAtc4-71: revTetR(BD) D53T L55M 56P A61S (protein, Modified tetracycline repressor, revTetR(BD) D53T L55M 56P A61S) MSRLDKSKVINSALELLNEVGIEGLTTRKLAQKLGVEQPTLYWHVKNKRALLTAMPVEILSRHHDYSLPAAGESWQSFLRNNAMSFRRALLRYRDGAKVHLGTRPDEKQYDTVETQLRFMTENGFSLRDGLYAISAVSHFTLGAVLEQQEHTAALTDRPAAPDENLPPLLREALQIMDSDDGEQAFLHGLESLIRGFEVQLTALLQIV", "classification": "t"}
{"molecule": "TetRrevAD2/8: revTetR(BD) V20G D53N A54A A56G V57L I59F L60L R62R (protein, Modified tetracycline repressor, revTetR(BD) V20G D53N A54A A56G V57L I59F L60L R62R) MSRLDKSKVINSALELLNEGGIEGLTTRKLAQKLGVEQPTLYWHVKNKRALLNALGLEFFARHHDYSLPAAGESWQSFLRNNAMSFRRALLRYRDGAKVHLGTRPDEKQYDTVETQLRFMTENGFSLRDGLYAISAVSHFTLGAVLEQQEHTAALTDRPAAPDENLPPLLREALQIMDSDDGEQAFLHGLESLIRGFEVQLTALLQIV", "classification": "f"}
{"molecule": "TetRrev4/6-3: revTetR(BD) D95A V99G (protein, Modified tetracycline repressor, revTetR(BD) D95A V99G) MSRLDKSKVINSALELLNEVGIEGLTTRKLAQKLGVEQPTLYWHVKNKRALLDALAVEILARHHDYSLPAAGESWQSFLRNNAMSFRRALLRYRAGAKGHLGTRPDEKQYDTVETQLRFMTENGFSLRDGLYAISAVSHFTLGAVLEQQEHTAALTDRPAAPDENLPPLLREALQIMDSDDGEQAFLHGLESLIRGFEVQLTALLQIV", "classification": "f"}
{"molecule": "TetRrev96/99-15: revTetR(BD) G96P V99P (protein, Modified tetracycline repressor, revTetR(BD) G96P V99P) MSRLDKSKVINSALELLNEVGIEGLTTRKLAQKLGVEQPTLYWHVKNKRALLDALAVEILARHHDYSLPAAGESWQSFLRNNAMSFRRALLRYRDPAKPHLGTRPDEKQYDTVETQLRFMTENGFSLRDGLYAISAVSHFTLGAVLEQQEHTAALTDRPAAPDENLPPLLREALQIMDSDDGEQAFLHGLESLIRGFEVQLTALLQIV", "classification": "t"}
{"molecule": "TetRrev4/6-6: revTetR(BD) D53Y V57V A61P (protein, Modified tetracycline repressor, revTetR(BD) D53Y V57V A61P) MSRLDKSKVINSALELLNEVGIEGLTTRKLAQKLGVEQPTLYWHVKNKRALLYALAVEILPRHHDYSLPAAGESWQSFLRNNAMSFRRALLRYRDGAKVHLGTRPDEKQYDTVETQLRFMTENGFSLRDGLYAISAVSHFTLGAVLEQQEHTAALTDRPAAPDENLPPLLREALQIMDSDDGEQAFLHGLESLIRGFEVQLTALLQIV", "classification": "f"}
{"molecule": "TetRrev96/99-2: revTetR(BD) G99K V99A (protein, Modified tetracycline repressor, revTetR(BD) G99K V99A) MSRLDKSKVINSALELLNEVGIEGLTTRKLAQKLGVEQPTLYWHVKNKRALLDALAVEILARHHDYSLPAAGESWQSFLRNNAMSFRRALLRYRDKAKAHLGTRPDEKQYDTVETQLRFMTENGFSLRDGLYAISAVSHFTLGAVLEQQEHTAALTDRPAAPDENLPPLLREALQIMDSDDGEQAFLHGLESLIRGFEVQLTALLQIV", "classification": "t"}
{"molecule": "TetRrev6-38: revTetR(BD) Y93H G96W K98Q V99G (protein, Modified tetracycline repressor, revTetR(BD) Y93H G96W K98Q V99G) MSRLDKSKVINSALELLNEVGIEGLTTRKLAQKLGVEQPTLYWHVKNKRALLDALAVEILARHHDYSLPAAGESWQSFLRNNAMSFRRALLRHRDWAQGHLGTRPDEKQYDTVETQLRFMTENGFSLRDGLYAISAVSHFTLGAVLEQQEHTAALTDRPAAPDENLPPLLREALQIMDSDDGEQAFLHGLESLIRGFEVQLTALLQIV", "classification": "t"}
{"molecule": "TetRrev6-32: revTetR(BD) L79V A97T K98R V99G (protein, Modified tetracycline repressor, revTetR(BD) L79V A97T K98R V99G) MSRLDKSKVINSALELLNEVGIEGLTTRKLAQKLGVEQPTLYWHVKNKRALLDALAVEILARHHDYSLPAAGESWQSFVRNNAMSFRRALLRYRDGTRGHLGTRPDEKQYDTVETQLRFMTENGFSLRDGLYAISAVSHFTLGAVLEQQEHTAALTDRPAAPDENLPPLLREALQIMDSDDGEQAFLHGLESLIRGFEVQLTALLQIV", "classification": "f"}
{"molecule": "TetRrevAtc4-9: revTetR(BD) L52M A56P V57L E58V L60L H188Y (protein, Modified tetracycline repressor, revTetR(BD) L52M A56P V57L E58V L60L H188Y) MSRLDKSKVINSALELLNEVGIEGLTTRKLAQKLGVEQPTLYWHVKNKRALMDAMPLVILARHHDYSLPAAGESWQSFLRNNAMSFRRALLRYRDGAKVHLGTRPDEKQYDTVETQLRFMTENGFSLRDGLYAISAVSHFTLGAVLEQQEHTAALTDRPAAPDENLPPLLREALQIMDSDDGEQAFLYGLESLIRGFEVQLTALLQIV", "classification": "f"}
